biological target: α6β2* nAChRs (Mus musculus, UniProt Q9ERK7+Q9R0W9); test: [125I]epibatidine binding, striatal membranes from α4KO mice; conditions: α4KO striatal membranes
Sequence (Q9ERK7 26-501): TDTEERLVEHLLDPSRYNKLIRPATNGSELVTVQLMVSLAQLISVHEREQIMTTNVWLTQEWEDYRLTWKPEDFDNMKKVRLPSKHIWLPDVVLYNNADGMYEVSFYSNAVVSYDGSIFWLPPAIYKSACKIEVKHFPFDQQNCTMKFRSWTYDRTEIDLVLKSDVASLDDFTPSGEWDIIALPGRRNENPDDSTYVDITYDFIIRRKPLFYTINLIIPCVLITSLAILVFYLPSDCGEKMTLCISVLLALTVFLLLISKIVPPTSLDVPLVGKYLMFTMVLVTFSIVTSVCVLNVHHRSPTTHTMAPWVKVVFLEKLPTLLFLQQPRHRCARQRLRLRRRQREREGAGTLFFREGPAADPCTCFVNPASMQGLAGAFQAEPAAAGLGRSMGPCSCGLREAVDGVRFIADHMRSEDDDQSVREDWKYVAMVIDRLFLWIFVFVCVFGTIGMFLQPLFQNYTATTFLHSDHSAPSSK
Sequence (Q9R0W9 31-494): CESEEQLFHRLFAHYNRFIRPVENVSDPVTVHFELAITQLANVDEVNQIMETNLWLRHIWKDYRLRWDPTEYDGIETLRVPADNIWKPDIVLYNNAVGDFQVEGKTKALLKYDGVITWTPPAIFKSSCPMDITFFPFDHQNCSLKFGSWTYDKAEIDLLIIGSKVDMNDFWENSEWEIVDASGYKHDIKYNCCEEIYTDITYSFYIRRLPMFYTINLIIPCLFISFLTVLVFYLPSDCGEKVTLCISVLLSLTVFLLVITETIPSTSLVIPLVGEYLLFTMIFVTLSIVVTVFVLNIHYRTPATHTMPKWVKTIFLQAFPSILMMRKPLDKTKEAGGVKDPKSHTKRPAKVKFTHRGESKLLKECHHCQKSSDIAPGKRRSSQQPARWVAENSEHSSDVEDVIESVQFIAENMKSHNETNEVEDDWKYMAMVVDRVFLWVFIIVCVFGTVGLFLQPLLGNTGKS
Readout Kind: Ki (nM)
Answer format: numeric, nM implied, no suffix.

Exam item: Given C1=C(/c2cncnc2)CCCNCC/1 , respond with its Ki.
Marked response: 1.4

----------
experiment: In vitro metabolism in microsomes; type: in vitro ADME; conditions: human microsomes
Counter-ions that a name gives are not always drawn.
Readout Kind: half-life
Write the figure, then the unit, nothing else.

# Compound, half-life
records = [
    ("c1cnc2cc3c(cc2n1)[C@@H]1CNC[C@H]3C1 [varenicline, Varenicline tartrate, reference compound]", "0.717 h"),
]

Consider now this further compound.
Exam item: Report measured half-life; entry is C1=C(/c2cncnc2)CCCNCC/1
Marked response: 4.75 h

----------
target: High-sensitivity α4(2)β2(3) nAChRs (Mus musculus, UniProt O70174+Q9ERK7); construct: from tissue; host or cells: WT mouse thalamic and cortical synaptosomes; experiment: 86Rb+ efflux from thalamic and cortical synaptosomes, DhβE-sensitive component; assay type: biochemical; conditions: thalamic and cortical synaptosomes; read-out: EC50 for the DhβE-sensitive α4β2* nAChRs
pEC50: −log10 of the molar value.
Readout Kind: pEC50

Exam item: Provide measured pEC50 value, entry: C1=C(/c2cncnc2)CCCNCC/1 [TC299423]
Marked response: 5.70 to 6.22

----------
target: Low-sensitivity α4(3)β2(2) nAChRs (Mus musculus, UniProt O70174+Q9ERK7); construct: from tissue; host or cells: WT mouse thalamic and cortical synaptosomes; assay: 86Rb+ efflux from thalamic and cortical synaptosomes, DhβE-insensitive component; type: biochemical; details: Thalamus
Readout Kind: pEC50
API: returns pEC50 as number; meaning -log10 of concentration in mol/L.

Exam item: Let me know recorded pEC50 for C1=C(/c2cncnc2)CCCNCC/1 , thanks.
Marked response: 5.00

----------
target: High-sensitivity α4(2)β2(3) nAChRs (Mus musculus, UniProt O70174+Q9ERK7); construct: from tissue; host or cells: WT mouse thalamic and cortical synaptosomes; experiment: 86Rb+ efflux from thalamic and cortical synaptosomes, DhβE-sensitive component; format: biochemical; settings: Thalamus; read-out: 86Rb+ efflux EC50
Readout Kind: EC50
Please answer using a numeric value trailed by its unit.

Exam item: Please tell me the measured EC50 for C1=C(/c2cncnc2)CCCNCC/1 ; system: High-sensitivity α4(2)β2(3) nAChRs (Mus musculus, UniProt O70174+Q9ERK7).
Marked response: 0.6 µM

----------
biological target: α4β2* nAChRs (Mus musculus, UniProt O70174+Q9ERK7); experiment: [125I]epibatidine binding, cortical membranes; settings: single component, cortical membranes
Readout Kind: pKi
Quick note: pKi means taking -log10 of the concentration in moles per liter.

Exam item: Find the measured pKi of C1=C(/c2cncnc2)CCCNCC/1 and report it.
Marked response: 9.62

----------
molecular target: Low-sensitivity α4(3)β2(2) nAChRs (Mus musculus, UniProt O70174+Q9ERK7); construct: from tissue; host or cells: WT mouse thalamic and cortical synaptosomes; assay: 86Rb+ efflux from thalamic and cortical synaptosomes, DhβE-insensitive component; format: biochemical; conditions: Cortex
Readout Kind: pEC50
Formally, pEC50 is defined as -log10 of the concentration c, with c in mol/L.

Exam item: Enter pEC50 (test system Low-sensitivity α4(3)β2(2) nAChRs (Mus musculus, UniProt O70174+Q9ERK7)) for C1=C(/c2cncnc2)CCCNCC/1 [TC299423]
Marked response: 4.59

----------
tested on: hERG potassium channel (IKr); test: NovaScreen competition binding; parameters: species or system human; details: human, probe [3H]Astemizole, [3H]Astemizole
Readout Kind: inhibition at 1 µM (%)
State just the number; it will be interpreted in %.

Exam item: Consider the compound C1=C(/c2cncnc2)CCCNCC/1 . State its measured inhibition at 1 µM.
Marked response: 14.5

----------
assay: Pharmacokinetics in mice, plasma and brain by LC-MS/MS; assay type: in vivo, mouse; details: both sexes, mouse, plasma; 0.3 mg/kg ip; read-out: Time of maximum plasma concentration
Readout Kind: Tmax (min)
Could you give me the number in min? Just the number is fine.

Exam item: State, in one line, measured Tmax of C1=C(/c2cncnc2)CCCNCC/1
Marked response: 4.8

----------
molecular target: High-sensitivity α4(2)β2(3) nAChRs (Mus musculus, UniProt O70174+Q9ERK7); construct: from tissue; host or cells: WT mouse thalamic and cortical synaptosomes; experiment: 86Rb+ efflux from thalamic and cortical synaptosomes, DhβE-sensitive component; assay type: biochemical; conditions: Cortex; read-out: 86Rb+ efflux EC50
Readout Kind: pEC50
The scale used: pEC50 is minus the common logarithm of the concentration in molar units.

Exam item: Look up and state reported pEC50 for C1=C(/c2cncnc2)CCCNCC/1 [TC299423]
Marked response: 5.70

----------
molecular target: α6-GFPβ2DMβ3 nAChRs (Mus musculus, UniProt Q9ERK7+Q9R0W9, L349M/R365A/R366A/R368A); construct: expressed in transfected cells; host or cells: mouse neuroblastoma neuro-2a (ATCC CCL-131); experiment: Whole-cell patch-clamp recordings in transfected neuro-2a cells; format: cell-based; details: α6β2β3 transfected in Neuro-2a cells; read-out: Patch clamp EC50
Sequence (Q8BMN3 31-464, stated change not applied): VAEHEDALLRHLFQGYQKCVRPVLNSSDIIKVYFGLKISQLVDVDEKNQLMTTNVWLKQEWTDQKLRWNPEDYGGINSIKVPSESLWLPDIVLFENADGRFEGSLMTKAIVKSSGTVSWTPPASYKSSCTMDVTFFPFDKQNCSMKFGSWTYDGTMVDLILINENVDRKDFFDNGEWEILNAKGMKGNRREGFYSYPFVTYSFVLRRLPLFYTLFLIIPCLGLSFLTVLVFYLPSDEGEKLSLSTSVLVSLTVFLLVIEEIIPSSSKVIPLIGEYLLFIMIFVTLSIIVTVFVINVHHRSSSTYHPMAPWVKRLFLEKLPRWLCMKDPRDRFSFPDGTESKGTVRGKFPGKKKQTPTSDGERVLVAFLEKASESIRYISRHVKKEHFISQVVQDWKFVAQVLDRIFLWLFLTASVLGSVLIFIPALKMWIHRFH
Sequence (Q9R0W9 31-494): as the sequence (Q9R0W9 31-494) above
Sequence (Q9ERK7 26-501 L349M/R365A/R366A/R368A): as the sequence (Q9ERK7 26-501) above, with L324M, R340A, R341A, R343A counted along it
Readout Kind: EC50 (nM)
# output: bare number, implied unit nM

Exam item: Give EC50 for the following compound: C1=C(/c2cncnc2)CCCNCC/1
Marked response: 40

----------
A collection of compounds and their measured microsomal CLint
assay: In vitro metabolism in microsomes; format: in vitro ADME; details: rat microsomes; read-out: Clearance
Structures can show the parent of a compound that is named as a salt.
// note: answer is a bare numeric in µL/min/mg

# Compound, Unit Of Measurement, Value Reported
records = [
    ("c1cnc2cc3c(cc2n1)[C@@H]1CNC[C@H]3C1 [varenicline, Varenicline tartrate, reference compound]", "µL/min/mg", 233),
]

Field: next compound
Exam item: Return microsomal CLint for the following compound: C1=C(/c2cncnc2)CCCNCC/1
Marked response: 18

----------
molecular target: α4β2 (α5KO) nAChRs (Mus musculus, UniProt O70174+Q9ERK7); construct: from tissue; host or cells: thalamic and cortical synaptosomes of α5KO mice; assay: 86Rb+ efflux from α5KO thalamic and cortical synaptosomes; format: biochemical; conditions: Cortex
Sequence (O70174 31-629): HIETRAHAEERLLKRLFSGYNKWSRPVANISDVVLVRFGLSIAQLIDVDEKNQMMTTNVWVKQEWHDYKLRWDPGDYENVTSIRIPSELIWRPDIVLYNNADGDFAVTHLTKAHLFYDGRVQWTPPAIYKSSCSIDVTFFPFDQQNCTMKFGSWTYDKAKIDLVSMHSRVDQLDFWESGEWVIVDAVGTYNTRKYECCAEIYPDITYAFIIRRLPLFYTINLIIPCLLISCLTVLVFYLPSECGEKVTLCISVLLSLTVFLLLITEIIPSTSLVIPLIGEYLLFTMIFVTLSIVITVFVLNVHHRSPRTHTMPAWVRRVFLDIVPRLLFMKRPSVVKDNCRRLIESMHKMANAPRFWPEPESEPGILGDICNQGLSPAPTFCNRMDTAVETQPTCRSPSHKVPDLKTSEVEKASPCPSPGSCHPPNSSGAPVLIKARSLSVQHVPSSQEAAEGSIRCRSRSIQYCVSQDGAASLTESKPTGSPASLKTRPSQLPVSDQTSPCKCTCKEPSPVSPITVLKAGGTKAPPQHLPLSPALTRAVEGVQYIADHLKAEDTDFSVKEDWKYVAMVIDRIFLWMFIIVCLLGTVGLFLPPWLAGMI
Sequence (Q9ERK7 26-501): as the sequence (Q9ERK7 26-501) above
Readout Kind: pEC50
In textbook form, pEC50 equals minus log to base ten of the concentration in mol/L.

Exam item: Tell us which pEC50 value is on record for C1=C(/c2cncnc2)CCCNCC/1 [TC299423]
Marked response: 5.62

----------
target: α3β4* nAChRs (Mus musculus, UniProt Q8R493+Q8R4G9); assay: [125I]epibatidine binding, IPN membranes from β2KO mice
Sequence (Q8R4G9 26-499): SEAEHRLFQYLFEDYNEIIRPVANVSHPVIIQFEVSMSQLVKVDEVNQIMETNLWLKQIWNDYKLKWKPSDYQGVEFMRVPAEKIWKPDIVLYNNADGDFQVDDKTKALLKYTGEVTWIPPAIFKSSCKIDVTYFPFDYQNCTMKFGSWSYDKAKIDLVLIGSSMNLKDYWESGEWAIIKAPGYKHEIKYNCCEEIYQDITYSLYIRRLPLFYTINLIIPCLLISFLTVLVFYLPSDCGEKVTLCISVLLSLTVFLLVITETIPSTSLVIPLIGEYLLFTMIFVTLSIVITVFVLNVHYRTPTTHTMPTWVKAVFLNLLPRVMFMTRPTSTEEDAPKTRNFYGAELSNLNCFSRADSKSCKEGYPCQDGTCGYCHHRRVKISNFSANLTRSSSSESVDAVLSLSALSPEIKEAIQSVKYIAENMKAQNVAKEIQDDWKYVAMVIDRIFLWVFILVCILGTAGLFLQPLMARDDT
Sequence (Q8R493 21-495): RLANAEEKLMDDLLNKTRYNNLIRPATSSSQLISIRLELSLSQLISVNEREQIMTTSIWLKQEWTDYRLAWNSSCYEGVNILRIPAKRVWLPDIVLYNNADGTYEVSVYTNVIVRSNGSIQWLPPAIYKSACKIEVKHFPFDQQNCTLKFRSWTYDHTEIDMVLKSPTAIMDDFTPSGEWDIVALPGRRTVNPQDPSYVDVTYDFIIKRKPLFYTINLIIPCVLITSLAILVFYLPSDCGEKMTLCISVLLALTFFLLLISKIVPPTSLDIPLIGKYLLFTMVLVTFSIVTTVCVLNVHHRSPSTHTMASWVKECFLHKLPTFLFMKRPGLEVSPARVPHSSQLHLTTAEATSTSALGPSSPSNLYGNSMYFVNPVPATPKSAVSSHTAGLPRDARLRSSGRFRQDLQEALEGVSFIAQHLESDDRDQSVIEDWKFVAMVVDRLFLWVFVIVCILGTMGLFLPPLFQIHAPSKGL
Readout Kind: Ki (nM)
Kindly answer with a numeric value in nM, unit omitted.

Exam item: Give reported Ki value for C1=C(/c2cncnc2)CCCNCC/1
Marked response: 18

----------
assay: Pharmacokinetics in mice, plasma and brain by LC-MS/MS; assay type: in vivo, mouse; conditions: both sexes, mouse, plasma; 1 mg/kg oral; read-out: Time of maximum plasma concentration
Readout Kind: Tmax (min)
Write the answer as a number in min, unit excluded.

Exam item: Retrieve Tmax measured for C1=C(/c2cncnc2)CCCNCC/1 and print it.
Marked response: 15

----------
experiment: Pharmacokinetics in mice, plasma and brain by LC-MS/MS; type: in vivo, mouse; conditions: both sexes, mouse, plasma; 0.3 mg/kg ip
Readout Kind: half-life (min)
Note: unit min is implicit; provide only the numeric part.

Exam item: Respond only with half-life recorded for C1=C(/c2cncnc2)CCCNCC/1
Marked response: 10.2

----------
molecular target: α4β2* nAChRs (Mus musculus, UniProt O70174+Q9ERK7); experiment: biochemical; format: biochemical; settings: read-out: Neurotransmitter release EC50; α5KO striatal synaptosomes
Readout Kind: pEC50
Entry type: numeric. Quantity: pEC50, the -log10 of concentration in molar units.

Exam item: Consider the compound C1=C(/c2cncnc2)CCCNCC/1 [TC299423] . State its measured pEC50.
Marked response: 6.22

----------
molecular target: α4β2 (α5KO) nAChRs (Mus musculus, UniProt O70174+Q9ERK7); construct: from tissue; host or cells: thalamic and cortical synaptosomes of α5KO mice; assay: 86Rb+ efflux from α5KO thalamic and cortical synaptosomes; type: biochemical; conditions: Thalamus
Readout Kind: pEC50
Scale: negative log10 of molar concentration, which is what pEC50 denotes.

Exam item: Please report pEC50 for the following molecule: C1=C(/c2cncnc2)CCCNCC/1 [TC299423]
Marked response: 5.80
